Target: Bcl-xL protein (Homo sapiens (Human))
Sequence (Q07817 other isoform, or with tags, fused parts or gaps): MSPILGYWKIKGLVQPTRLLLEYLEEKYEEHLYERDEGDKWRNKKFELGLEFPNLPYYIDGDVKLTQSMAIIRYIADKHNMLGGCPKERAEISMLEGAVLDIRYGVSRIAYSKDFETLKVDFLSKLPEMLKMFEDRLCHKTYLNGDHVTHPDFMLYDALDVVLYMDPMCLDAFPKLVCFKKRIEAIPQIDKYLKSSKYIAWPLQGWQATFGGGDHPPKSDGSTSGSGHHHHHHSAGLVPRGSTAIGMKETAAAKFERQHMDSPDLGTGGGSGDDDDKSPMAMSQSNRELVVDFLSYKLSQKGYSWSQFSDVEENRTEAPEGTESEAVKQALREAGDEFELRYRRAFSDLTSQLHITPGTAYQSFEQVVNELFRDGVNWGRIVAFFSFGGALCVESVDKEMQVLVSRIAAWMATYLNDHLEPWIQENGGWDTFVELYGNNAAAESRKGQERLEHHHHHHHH
Measurement label: Ki (µM)

[[record]]
compound = "CO[C@@H]1CC[C@@H](COc2ccc(S(=O)(=O)NC(=O)c3ccc(N4CCN5CC6=C(c7ccc(Cl)cc7)CC(C)(C)C[C@H]6OCCCOC[C@@H]5C4)cc3N3CCCOc4nc5[nH]ccc5cc43)cc2[N+](=O)[O-])OC1"
measurement_label = "Ki"
quantitative_result = 0.0189

[[record]]
compound = "CC1(C)CC(c2ccc(Cl)cc2)=C2CN3CCN(c4ccc(C(=O)NS(=O)(=O)c5cnc(OC[C@H]6CC[C@@](C)(O)CC6)c(Cl)c5)c(N5CCCOc6nc7[nH]ccc7cc65)c4)C[C@H]3COCCCO[C@@H]2C1"
measurement_label = "Ki"
quantitative_result = 0.0397

[[record]]
compound = "CO[C@]1(CF)C[C@@H](CNc2ccc(S(=O)(=O)NC(=O)c3ccc(N4CCN5CC6=C(c7ccc(Cl)cc7)CC(C)(C)C[C@H]6OCCCOC[C@@H]5C4)cc3N3CCCOc4nc5[nH]ccc5cc43)cc2[N+](=O)[O-])C1"
measurement_label = "Ki"
quantitative_result = 0.0286

[[record]]
compound = "CC1(C)CC(c2ccc(Cl)cc2)=C2CN3CCN(c4ccc(C(=O)NS(=O)(=O)c5ccc(OC[C@H]6CC[C@](C)(O)CC6)c([N+](=O)[O-])c5)c(N5CCCOc6nc7[nH]ccc7cc65)c4)C[C@H]3COCCCO[C@@H]2C1"
measurement_label = "Ki"
quantitative_result = 0.00798

[[record]]
compound = "CC1(C)CC(c2ccc(Cl)cc2)=C2CN3CCN(c4ccc(C(=O)NS(=O)(=O)c5ccc(NCC6CCCCO6)c([N+](=O)[O-])c5)c(N5CCCOc6nc7[nH]ccc7cc65)c4)C[C@H]3COCCCO[C@@H]2C1 (stereo partly drawn)"
measurement_label = "Ki"
quantitative_result = 0.0278

[[record]]
compound = "CC1(C)CC(c2ccc(Cl)cc2)=C2CN3CCN(c4ccc(C(=O)NS(=O)(=O)c5cnc(OC[C@H]6CC[C@](C)(O)CC6)c(Cl)c5)c(N5CCCOc6nc7[nH]ccc7cc65)c4)C[C@H]3COCCCO[C@@H]2C1"
measurement_label = "Ki"
quantitative_result = 0.0251

[[record]]
compound = "CC1(C)CC(c2ccc(Cl)cc2)=C2CN3CCN(c4ccc(C(=O)NS(=O)(=O)c5ccc(OC[C@H]6CC[C@H](N7CCOCC7)CC6)c(Cl)c5)c(N5CCCOc6nc7[nH]ccc7cc65)c4)C[C@H]3COCCCO[C@@H]2C1"
measurement_label = "Ki"
quantitative_result = 0.00562

[[record]]
compound = "CC1(C)CC(c2ccc(Cl)cc2)=C2CN3CCN(c4ccc(C(=O)NS(=O)(=O)c5ccc(OC[C@H]6CC[C@](C)(O)CC6)c(Cl)c5)c(N5CCCOc6nc7[nH]ccc7cc65)c4)C[C@H]3COCCCO[C@@H]2C1"
measurement_label = "Ki"
quantitative_result = 0.0297

[[record]]
compound = "COC[C@]1(F)C[C@H](CNc2ccc(S(=O)(=O)NC(=O)c3ccc(N4CCN5CC6=C(c7ccc(Cl)cc7)CC(C)(C)C[C@H]6OCCCOC[C@@H]5C4)cc3N3CCCOc4nc5[nH]ccc5cc43)cc2[N+](=O)[O-])C1"
measurement_label = "Ki"
quantitative_result = 0.0258

